Record set: IC50 | UniProt O00519 | literature, multiple sources.
Sequence (O00519 whole entry): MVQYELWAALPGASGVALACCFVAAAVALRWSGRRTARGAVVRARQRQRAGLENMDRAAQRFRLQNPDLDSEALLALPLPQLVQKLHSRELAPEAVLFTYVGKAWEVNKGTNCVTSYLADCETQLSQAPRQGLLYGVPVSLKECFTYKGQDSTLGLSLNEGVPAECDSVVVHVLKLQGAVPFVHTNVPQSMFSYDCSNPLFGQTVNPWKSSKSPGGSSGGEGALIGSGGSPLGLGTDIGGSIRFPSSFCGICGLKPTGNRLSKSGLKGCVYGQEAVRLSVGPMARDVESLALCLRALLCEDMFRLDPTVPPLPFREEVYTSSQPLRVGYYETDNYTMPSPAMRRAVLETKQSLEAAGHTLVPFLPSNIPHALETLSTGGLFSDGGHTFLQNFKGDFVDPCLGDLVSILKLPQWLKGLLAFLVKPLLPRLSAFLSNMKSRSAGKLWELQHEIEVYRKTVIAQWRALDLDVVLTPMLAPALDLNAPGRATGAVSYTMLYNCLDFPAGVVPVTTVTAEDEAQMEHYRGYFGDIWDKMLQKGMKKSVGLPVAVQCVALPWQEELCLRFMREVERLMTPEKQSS
# if measured IC50 < 4 µM: label 1  # else: label 0

Examples with answers:
>>> assigned_class("CC/C=C\\C/C=C\\C/C=C\\C/C=C\\C/C=C\\C/C=C\\CCC(=O)NC(CO)CO")
"label 0"
>>> assigned_class("O=C(Nc1noc2ccccc12)N1C[C@H]2CN(Cc3ccc(Oc4ccccc4)cc3)C[C@H]2C1")
"label 0"
>>> assigned_class("O=C(CCCCCCCCc1ccccc1)c1nnc(-c2ccccn2)o1")
"label 1"
>>> assigned_class("Cc1nc(C)c(-c2ccc(C3CCC(CC(=O)O)CC3)cc2)nc1C(N)=O (centres undefined)")
"label 1"
>>> assigned_class("CCCCCCCC/C=C\\CCCCCCCC(=O)c1nc2ccccc2o1")
"label 0"

Q: Would you kindly verify if IC50 of `O=C(CCCCCc1ccccc1)C(F)(F)F` is strictly less than 4 µM?
A: label 0

Q: Would you kindly verify if IC50 of `O=C(N/N=C/c1ccc(OCc2ccccc2)cc1)c1nc2ccccc2[nH]1` is strictly less than 4 µM?
A: label 0

Q: Would you kindly verify if IC50 of `CCCCCCCC/C=C\CCCCCCCC(=O)c1nnc(-c2ccccc2)o1` is strictly less than 4 µM?
A: label 1

Q: Would you kindly verify if IC50 of `O=C(Nc1ccccc1F)N1CCN(c2nc(-c3ccccc3)ns2)CC1` is strictly less than 4 µM?
A: label 1
